meta.source: patent US20200231654A1

target under test: T1, APMA-activated human MMP-1 enzyme active domain (human, UniProt P03956 100-269)
T1 chain: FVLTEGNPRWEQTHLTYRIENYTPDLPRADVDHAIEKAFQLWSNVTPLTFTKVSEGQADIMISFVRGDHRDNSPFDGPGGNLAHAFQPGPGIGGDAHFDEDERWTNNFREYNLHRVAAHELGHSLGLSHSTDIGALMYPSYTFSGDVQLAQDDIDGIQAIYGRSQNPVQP
measurement notes: enzyme inhibition
pIC50: −log10 of the molar value.
For each of the binders below, state its pIC50.

Measured pIC50, active MMP-9-binding peptide M91012 (designed binder) GSGMKETAAAKFERQHMDSPDLGTDDDDKAMADIGSANSDPQFGLFSKYRTPNCRVRGGPSCQMSFNPVCGSDMSTYANECTLCMKIREGGHNIKIIRNGPCGASAAA : < 6.00

Measured pIC50, active MMP-9-binding peptide M91005 (designed binder) GSGMKETAAAKFERQHMDSPDLGTDDDDKAMADIGSANSDPQFGLFSKYRTPNCRKRGGPSCQMSYNPVCGSDMSTYANECTLCMKIREGGHNIKIIRNGPCGASAAA : < 6.00
